- Tested on: rodent lifetime carcinogenesis bioassay, tumor incidence TD50
- assay-details: carcinogenic potency in animals, long-term in vivo studies, CPDB compilation (AID 1745844)
- experimental-conditions: rat; strain Donryu; females; in drinking water; site: forestomach; lesion: papilloma; dosed 51 weeks; study length 60 weeks
measurement-type: TD50

Need TD50 of CCOC(=O)N(CC)N=O , thanks.
0.508 mg/kg/day

* * *

- Tested on: rodent lifetime carcinogenesis bioassay, tumor incidence TD50
- assay-details: carcinogenic potency in animals, long-term in vivo studies, CPDB compilation (AID 1745844)
- experimental-conditions: mouse; strain NMRI; males; inhaled; site: Harderian gland; lesion: cystadenoma; dosed 78 weeks; study length 127 weeks
measurement-type: TD50

Notebook entry, rodent lifetime carcinogenesis bioassay, tumor incidence TD50 assay: TD50 of ClC#CCl = ?
1.01 mg/kg/day
